# protocol summary: Plasmodium falciparum growth inhibition, primary screen, strain 3D7, DAPI fluorescence, 100 nL (AID 1184);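 note: parasites grown inside human red blood cells in medium with human serum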
# condition notes: P. falciparum 3D7 growth, 3 d, higher = more signal
z-score vs -0.3: at or above is 1, below is 0.

Assess whether reported z-score for CCS[C@H]1[C@@H](C(=O)O)[C@H](c2ccc(C)cc2)N(S(=O)(=O)c2ccc(C)cc2)[C@@H]1CC sits at -0.3 or higher.
1

Assess whether reported z-score for O=C(c1ccccc1)N1C(=O)[C@@]2(Cc3ccccc31)N=C(c1ccc(OCCCO)cc1)O[C@H]2c1ccccc1 sits at -0.3 or higher.
0

Assess whether reported z-score for CC(=O)NCCCC[C@@H]1NC(=O)[C@@H]2C[C@H](C(=O)NCCCCCNC(=O)CS)[C@H](c3cccc(OCCO)c3)N2C1=O sits at -0.3 or higher.
1

Data credit: PubChem BioAssay
